# TEST_TARGET: EGFRΔ19del/T790M/C797S (Homo sapiens, UniProt P00533, T790M/C797S, form not given)
# Sequence (P00533 with tags, fused parts or gaps DEL746-750/T790M/C797S, form open): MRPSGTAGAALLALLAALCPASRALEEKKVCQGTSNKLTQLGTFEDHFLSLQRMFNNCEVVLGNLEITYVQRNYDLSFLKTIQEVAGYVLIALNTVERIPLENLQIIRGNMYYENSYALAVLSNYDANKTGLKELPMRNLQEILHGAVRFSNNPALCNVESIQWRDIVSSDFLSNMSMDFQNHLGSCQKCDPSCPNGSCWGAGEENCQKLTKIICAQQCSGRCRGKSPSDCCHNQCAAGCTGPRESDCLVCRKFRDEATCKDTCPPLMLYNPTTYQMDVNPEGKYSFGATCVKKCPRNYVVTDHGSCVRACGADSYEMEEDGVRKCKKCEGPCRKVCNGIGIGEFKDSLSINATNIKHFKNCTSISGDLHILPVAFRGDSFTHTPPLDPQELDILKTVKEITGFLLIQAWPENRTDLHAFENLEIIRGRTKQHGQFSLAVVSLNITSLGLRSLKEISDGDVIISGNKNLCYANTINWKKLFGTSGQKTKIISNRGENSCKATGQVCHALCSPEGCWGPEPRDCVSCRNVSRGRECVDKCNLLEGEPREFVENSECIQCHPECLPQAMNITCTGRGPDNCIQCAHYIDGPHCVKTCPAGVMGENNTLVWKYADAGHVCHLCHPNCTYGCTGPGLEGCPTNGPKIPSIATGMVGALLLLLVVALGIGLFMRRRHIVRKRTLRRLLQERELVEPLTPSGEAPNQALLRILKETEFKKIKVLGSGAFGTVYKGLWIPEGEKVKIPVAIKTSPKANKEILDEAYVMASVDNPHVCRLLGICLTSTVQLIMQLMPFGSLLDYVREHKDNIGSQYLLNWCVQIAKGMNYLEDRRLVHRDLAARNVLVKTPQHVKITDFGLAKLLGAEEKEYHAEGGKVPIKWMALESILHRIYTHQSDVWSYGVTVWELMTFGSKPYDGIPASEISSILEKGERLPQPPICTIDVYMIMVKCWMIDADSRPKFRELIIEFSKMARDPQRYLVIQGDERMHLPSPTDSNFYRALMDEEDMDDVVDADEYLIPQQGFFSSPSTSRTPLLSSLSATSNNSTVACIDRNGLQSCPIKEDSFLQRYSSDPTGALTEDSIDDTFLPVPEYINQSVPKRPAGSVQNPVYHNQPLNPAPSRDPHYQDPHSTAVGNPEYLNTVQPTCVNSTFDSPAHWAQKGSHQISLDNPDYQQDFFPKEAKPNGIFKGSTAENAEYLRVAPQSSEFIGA
# PROTOCOL_TEXT: EGFR Δ19del/T790M/C797S kinase test (mobility variation analysis, Caliper EZ Reader)
# CONDITIONS: kinase enzymatic activity, Table 1
Rule: measured IC50 below 0.4 nM gets 1 (yes); anything equal to or greater than 0.4 nM gets 0 (no).

Please review the entries below; each comes with its answer.
CCc1cc(Nc2ncc(Br)c(Nc3ccc(-c4cnc(OC)nc4)cc3P(C)(C)=O)n2)c(OC)cc1N1CCC(N2CCN(C)CC2)CC1 ... 1 (yes)
CCc1cc(Nc2ncc(Br)c(Nc3ccc(-c4nc(Cl)cs4)cc3P(C)(C)=O)n2)c(OC)cc1N1CCC(N2CCN(C)CC2)CC1 ... 1 (yes)
CCc1cc(Nc2ncc(Br)c(Nc3ccc(-c4ncc(C)cn4)cc3P(C)(C)=O)n2)c(OC)cc1N1CCC(N2CCN(C)CC2)CC1 ... 0 (no)
COc1cc(Nc2ncc(Br)c(Nc3ccc(-c4cnccn4)cc3P(C)(C)=O)n2)c(C)cc1N1CCOCC1 ... 1 (yes)

# check: IC50 < 0.4 nM for CCc1cc(Nc2ncc(Br)c(Nc3ccc(-c4cccc5c4COC5)cc3P(C)(C)=O)n2)c(OC)cc1N1CCC(N2CCN(C)CC2)CC1
0 (no)

Next compound up: CCc1cc(Nc2ncc(Br)c(Nc3ccc(-c4c(C)cnn4C)cc3P(C)(C)=O)n2)c(OC)cc1N1CCC(N2CCN(C)CC2)CC1
0 (no)

Same thing, different compound: CCc1cc(Nc2ncc(Br)c(Nc3ccc(-c4ccc(F)cc4F)cc3P(C)(C)=O)n2)c(OC)cc1N1CCC(N2CCN(C)CC2)CC1
0 (no)

Data provenance: patent US20220402948A1
